assay: protein stability index of a GFP-peptide fusion (yeast GPS) (PSI 1-4); higher = more stable; sorted into four equal gates, so the index is relative within each strain; details: ubr1∆
Catalogue of protein stability index readings, one per entry.
Enter a number only.

Some solved entries appear below for comparison.
MPPKKSWRNITNLSGGE [SMC4] : 2.96
ESDNYRLLPNGSNKAQI [YML031W/NDC1] : 2.95
KEAAAIAEGKSKQDASP [RPL8B] : 3.06
PSTTLFNFGGKSDTVTS [YOR098C/NUP1] : 2.92
MRSTSILTEHLGYPPIS [MTW1] : 3.06
LRNNLNSLIEEINERSE [YCG1] : 3.01

Ask: Could you share which protein stability index value was measured for RVGVKLKFNSTEYRGTL [SMX3] ?
Result: 3.02

Ask: Also FKIWHGEINKICMESLF [PCI8] ?
Result: 1.87

====

test: protein stability index of a GFP-peptide fusion (yeast GPS) (PSI 1-4); higher = more stable; sorted into four equal gates, so the index is relative within each strain; settings: san1∆
measured.parameter: protein stability index
Enter a number only.

ETRRKTTTVLKRYANHT [RET1] : 3.09
LISGAGANPRVLSTFTA [RPN10] : 2.02
GYLFKVSALDKCIKYSE [ECM29] : 1.95
VGRLWDQTFPINCNKET [ECM29] : 3.07
QQQQQQQQRRQLTPQQQ [GAL11] : 2.88

Ask: Could you share which protein stability index value was measured for EINLSKIFQTTPEKDLF [YCS4] ?
Result: 1.5

Ask: Also TKLYFDVNEKIRFRIER [RPC25] ?
Result: 2.81

Ask: Also SLEMVPKDTSAATMTSA [RGR1] ?
Result: 2.73

Ask: Also RSEDPAGLGKTNELWAR [YGR119C/NUP57] ?
Result: 3.25

====

Catalogue of protein stability index readings, one per entry.
test: protein stability index of a GFP-peptide fusion (yeast GPS) (PSI 1-4); higher = more stable; sorted into four equal gates, so the index is relative within each strain; details: san1∆
Enter a number only.

Some solved entries appear below for comparison.
ESFAELMTKLNSFKLFK [RPC17] : 1.59
ILRDYGPQEAANAMNRM [RPO31] : 2.86
QWGKYQTFGVDILAKLF [SWI1] : 2.43
YGRDDMENIKKSIDSKT [ISW2] : 3.21
GRSWDGKEHIVAALVSL [ECM29] : 1.56

Ask: Could you share which protein stability index value was measured for TCILHGPVAAQFTKVID [FAS1] ?
Result: 1.94

====

Catalogue of protein stability index readings, one per entry.
assay: protein stability index of a GFP-peptide fusion (yeast GPS) (PSI 1-4); higher = more stable; sorted into four equal gates, so the index is relative within each strain; settings: ubr1∆
Enter a number only.

Ask: Could you share which protein stability index value was measured for GRILQNLLHSYMEKGTQ [YML103C/NUP188] ?
Result: 2.51

Ask: Also IEDEDEPFNAGIKYHAT [SMC1] ?
Result: 2.89

Ask: Also SQSLTSILVIVQKILPL [SWI1] ?
Result: 1.61

====

assay: protein stability index of a GFP-peptide fusion (yeast GPS) (PSI 1-4); higher = more stable; sorted into four equal gates, so the index is relative within each strain; settings: pdr5∆
Catalogue of protein stability index readings, one per entry.
Enter a number only.

Some solved entries appear below for comparison.
IDSQMDEASGTPDEDML [GRR1] : 2.96
MGDNSQLDFTEFDEQYG [SNF2] : 3.15
NGDNSTTTNTDQNNATM [SNF12] : 2.2
EINPFLLGTMAGGAADC [PRE2] : 3.22
TMRKISSETDDDHSQVI [DSN1] : 3.24

// next item, protein stability index requested
Ask: Could you share which protein stability index value was measured for SQSKGTVWSANFEYDLS [YOR098C/NUP1] ?
Result: 3.35

Where do these numbers come from? They come from the supplement of paper PMC9732359.
